As shown below, each of these compounds has a reported Number of dead mice for 7 days value.
- Tested on: ICR mice
- Assay explanation: Acute toxicity test
- Format: in vivo
- Measurement parameters: male, 270 mg/kg i.p.

| Compound | Number of dead mice for 7 days |
| --- | --- |
| O=C1[O][Pt-2]2([NH2+]CC3OCOC3C[NH2+]2)[O]C(=O)C12CCC2 (centres unmarked) | 6/6 |
| CC1OC2C[NH2+][Pt-2]3([NH2+]CC2O1)[O]C(=O)C1(CCC1)C(=O)[O]3 (centres unmarked) | 6/6 |
| O=C1[O][Pt-2]2([NH2+]CC3OC4(CCCC4)OC3C[NH2+]2)[O]C(=O)C12CCC2 (centres unmarked) | 6/6 |
| CC1(C)OC2C[NH2+][Pt-2]3([NH2+]CC2O1)[O]C(=O)C1(CCC1)C(=O)[O]3 (centres unmarked) | 2/6 |
| CCC1OC2C[NH2+][Pt-2]3([NH2+]CC2O1)[O]C(=O)C1(CCC1)C(=O)[O]3 (centres unmarked) | 5/6 |

src = patent US5395947A
